# ASSAY_OVERVIEW: Evaluation of solubility in JP 1st fluid and artificial intestinal juice (FaSSIF), HPLC
# Type: physicochemical
# ASSAY_CONDITIONS: JP 1st fluid, 37 °C, simulated gastric fluid, thermodynamic from solid, JP 1st fluid, 700 rpm, after 24 hours, read-out: Solubility, JP 1st fluid
PROPERTY_LABEL: solubility at 24 h (µg/mL)
Expressed in µg/mL, but write only the number.

stdin: solubility at 24 h lookup needed for Nc1ccc(-c2nc(F)c([C@@H]3CCc4cc(-c5cc(Cl)ccc5-n5cnnn5)cc(=O)n43)[nH]2)c(F)n1 [Example 1(11), dihydrate] , thanks.
stdout: 41

* * *

# ASSAY_OVERVIEW: Evaluation of solubility in JP 1st fluid and artificial intestinal juice (FaSSIF), HPLC
# Type: physicochemical
# ASSAY_CONDITIONS: artificial intestinal juice (FaSSIF), 37 °C, fassif, thermodynamic from solid, artificial intestinal juice (FaSSIF), 700 rpm, after 24 hours, read-out: Solubility, Artificial intestinal juice
PROPERTY_LABEL: solubility at 24 h
Answer shape: numeric part, then the unit.

stdin: solubility at 24 h lookup needed for Nc1ccc(-c2nc(F)c([C@@H]3CCc4cc(-c5cc(Cl)ccc5-n5cnnn5)cc(=O)n43)[nH]2)c(F)n1 [Example 1(11), dihydrate] , thanks.
stdout: 47 µg/mL
